System: Cynomolgus monkey
testDescription: Clearance in cynomolgus monkey at 1 mg/kg, iv by LC-MS/MS method relative to liver blood flow
Format: ADME, organism-based, Macaca fascicularis
experimentalSetup: in vivo
observable: clearance

[
  {
    "itemSmiles": "COC(=O)N[C@H](C(=O)N1CC(F)(F)C[C@H]1c1ncc(-c2ccc(-c3ccc4c(ccc5nc([C@@H]6C[Si](C)(C)CN6C(=O)[C@@H](NC(=O)OC)C(C)C)[nH]c54)c3)cc2)[nH]1)C(C)C",
    "reported": "3 to 7%"
  }
]

---

testDescription: Ratio of drug level in brain to plasma of cynomolgus monkey
Type: ADME, cell-free, Macaca fascicularis
experimentalSetup: read-out: BPR

[
  {
    "itemSmiles": "COC(=O)N[C@H](C(=O)N1CC(F)(F)C[C@H]1c1ncc(-c2ccc(-c3ccc4c(ccc5nc([C@@H]6C[Si](C)(C)CN6C(=O)[C@@H](NC(=O)OC)C(C)C)[nH]c54)c3)cc2)[nH]1)C(C)C",
    "Kp": 0.04
  }
]
